Target: recombinant human NK3 receptor (Homo sapiens)
Sequence (P29371 1-465): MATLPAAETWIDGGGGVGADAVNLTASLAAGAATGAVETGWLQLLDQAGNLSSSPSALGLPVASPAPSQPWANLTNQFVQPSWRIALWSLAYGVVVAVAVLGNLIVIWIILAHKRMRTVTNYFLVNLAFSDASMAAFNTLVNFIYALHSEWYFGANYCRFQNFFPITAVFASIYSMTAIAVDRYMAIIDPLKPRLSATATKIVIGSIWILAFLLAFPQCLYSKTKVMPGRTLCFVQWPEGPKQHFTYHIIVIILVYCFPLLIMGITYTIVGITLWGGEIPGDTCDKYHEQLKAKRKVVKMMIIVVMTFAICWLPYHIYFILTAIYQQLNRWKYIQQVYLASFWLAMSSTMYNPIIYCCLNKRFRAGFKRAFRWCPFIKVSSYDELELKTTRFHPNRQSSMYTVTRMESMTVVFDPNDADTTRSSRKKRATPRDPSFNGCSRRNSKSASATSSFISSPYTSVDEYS
Experiment: [3H]SR142801 competition binding assay
Details: membranes from HEK293 cells transiently expressing recombinant human NK3 receptor; [3H]SR142801 radioligand; 75 min at RT; Ki by Cheng-Prussoff; read-out: Data Ki (hNK-3 receptor affinity)
Description: [^3H]SR142801 Competition Binding Assay hNK3 receptor binding experiment were performed using [^3H]SR142801 (Catalog No. TRK1035, specific activity: 74.0 Ci/mmol, Amersham, GE Healthcare UK limited, Buckinghamshire, UK) and membrane isolated from HEK293 cells transiently expressing recombinant human NK3 receptor. […] Nonspecific binding was measured in the presence of 10 μM SB222200 for both radioligands. […]
Value Kind: pKi
# reply with the number alone; pKi is -log10 of concentration in mol/L

Consider the following illustrative entries.
Compound	pKi
O=C(c1ccc(-c2ccc(F)cc2)cc1)N1CCC(C(=O)NC2(c3ccc(F)cc3)CC2)(c2ccc(F)cc2)CC1	7.57
C[C@H](NC(=O)C1(c2ccccc2)CCN(C(=O)c2ccc(-c3nnco3)cc2)CC1)c1ccccc1	7.16
C[C@H](NC(=O)C1(c2ccccc2)CCN(C(=O)c2ccc(-c3ccc(F)cc3)cc2)CC1)c1ccccc1	8.14
Cc1noc(-c2ccc(C(=O)N3CCC(C(=O)N[C@@H](c4ccc(F)cc4)C(F)(F)F)(c4ccc(F)cc4)CC3)cc2)n1 (racemic)	8.17
Cc1noc(-c2ccc(C(=O)N3CCC(C(=O)NC(C)(C)c4ccccc4)(c4ccccc4)CC3)cc2)n1	7.65
Cc1nc(-c2ccc(C(=O)N3CCC(C(=O)N[C@@H](C)c4ccc(F)cc4)(C4CCCC4)CC3)cc2)no1	7.08

Q: Fill in the blank: the reported pKi of CC(C)C(NC(=O)C1(c2ccc(F)cc2)CCN(C(=O)N2CCN(c3ccc(F)cc3)CC2)CC1)c1ccc(F)cc1 (centres unmarked) is ____.
A: 7.32

Q: Fill in the blank: the reported pKi of Cc1noc(C2CCN(C(=O)N3CCC(C(=O)N[C@@H](C)c4ccc(F)cc4)(c4ccccc4)CC3)CC2)n1 is ____.
A: 7.93
